Data origin, for the record: patent US10463664B2

experimental.details: Neutral red cytotoxicity assay in HFFs (10 day, with plaque reduction assay)
Format: cell-based, human
recorded.conditions: human, uninfected primary human foreskin fibroblasts (HFFs), 10 day assay
parameter: CC50 at 10 days (µM)
Give just the numeric value; µM need not be written.

(Q) Report CC50 at 10 days for Cc1cc(C2CCCCC2)n(O)c(=O)c1 [Compound 41, Ciclopirox, reference compound]
(A) 2.9

====

System: HCMV strain AD169
experimental.details: HCMV plaque reduction assay in HFFs
Type: cell-based, human cytomegalovirus
recorded.conditions: 10 days, read-out: EC50 against HCMV, plaque reduction assay
parameter: pEC50
The quantity pEC50 is defined as the negative base-10 logarithm of the molar concentration.

(Q) Report pEC50 for CC(C)=CCc1ccc(O)c(=O)cc1C(C)C [Compound 49, Nootkatin]
(A) 6.35

(Q) Report pEC50 for CC(=O)NC(CCc1ccc(Cl)c(Cl)c1)c1cccc(O)c(=O)c1 (stereo not shown) [Compound 55]
(A) 6.33

(Q) Report pEC50 for C=C(C)C1CCc2c(c(C)cc(O)c(=O)c2O)C1 (stereo not shown) [Compound 56, Manicol]
(A) 5.58

(Q) Report pEC50 for CC(C)c1ccc(O)c(=O)c(O)c1 [Compound 46, Beta-thujaplicinol]
(A) 5.89

====

Tested on: TK-deficient mutant of HSV-2 strain 333, ΔTK-
experimental.details: Replication inhibition of thymidine kinase-deficient HSV-2 mutant in Vero cells
Format: cell-based, herpes simplex virus 2
recorded.conditions: 50 μM, 24 h

# compound, Inhibition of TK-mutant HSV-2 (in words)
rows = [
    ("Cc1cc(C2CCCCC2)n(O)c(=O)c1 [Compound 41, Ciclopirox, reference compound]", "efficiently inhibited"),
    ("CC(C)c1ccc(O)c(=O)c(O)c1", "efficiently inhibited"),
    ("CCOc1ccc(-c2c3cc(O)c(=O)cc-3oc3cc(O)c(O)cc23)cc1", "efficiently inhibited"),
]

====

Tested on: HFFs
experimental.details: Neutral red cytotoxicity assay in uninfected HFFs (14 day, with CPE assay)
Type: cell-based, human
recorded.conditions: 14 days
parameter: CC50

(Q) Report CC50 for CC(C)=CCc1ccc(O)c(=O)cc1C(C)C
(A) > 60 µM

(Q) Report CC50 for C=C(C)C1CCc2c(c(C)cc(O)c(=O)c2O)C1 (stereo not shown)
(A) 38.4 µM

(Q) Report CC50 for CC(C)c1ccc(O)c(=O)c(O)c1
(A) > 60 µM

(Q) Report CC50 for CC(=O)NC(CCc1ccc(Cl)c(Cl)c1)c1cccc(O)c(=O)c1 (stereo not shown)
(A) > 60 µM

====

Consider the following molecules; for each one, report its CC50.
Tested on: primary human foreskin fibroblasts
experimental.details: in vitro

(Q) Report CC50 for CCOc1ccc(-c2c3cc(O)c(=O)cc-3oc3cc(O)c(O)cc23)cc1 [Compound 30]
(A) > 100 µM

(Q) Report CC50 for CC(C)c1ccc(O)c(=O)cc1 [Compound 48, Gamma-thujaplicin]
(A) > 100 µM

(Q) Report CC50 for CC(=O)NC(CCc1ccc(Cl)c(Cl)c1)c1cccc(O)c(=O)c1 (stereo not drawn) [Compound 55]
(A) > 100 µM

(Q) Report CC50 for CC(C)=CCc1ccc(O)c(=O)cc1C(C)C [Compound 49, Nootkatin]
(A) > 100 µM

(Q) Report CC50 for CC(C)c1ccc(O)c(=O)c(O)c1 [Compound 46, Beta-thujaplicinol]
(A) > 100 µM

(Q) Report CC50 for O=Nc1ccc(O)c(=O)cc1 [Compound 50, 5-nitrosotropolone]
(A) 40.4 µM

(Q) Report CC50 for O=C(Nc1ccc(O)c(=O)cc1)c1ccccc1 [Compound 52]
(A) > 100 µM

(Q) Report CC50 for C=C(C)C1CCc2c(c(C)cc(O)c(=O)c2O)C1 (stereo not drawn) [Compound 56, Manicol]
(A) > 100 µM

(Q) Report CC50 for Cc1ccc(S(=O)(=O)Oc2cccccc2=O)cc1 [Compound 61]
(A) 27.8 µM
